Target: T1, recombinant human soluble gpNMB (recombinant human gpNMB-FLAG-His) (human, UniProt Q14956 23-498)
T1 sequence: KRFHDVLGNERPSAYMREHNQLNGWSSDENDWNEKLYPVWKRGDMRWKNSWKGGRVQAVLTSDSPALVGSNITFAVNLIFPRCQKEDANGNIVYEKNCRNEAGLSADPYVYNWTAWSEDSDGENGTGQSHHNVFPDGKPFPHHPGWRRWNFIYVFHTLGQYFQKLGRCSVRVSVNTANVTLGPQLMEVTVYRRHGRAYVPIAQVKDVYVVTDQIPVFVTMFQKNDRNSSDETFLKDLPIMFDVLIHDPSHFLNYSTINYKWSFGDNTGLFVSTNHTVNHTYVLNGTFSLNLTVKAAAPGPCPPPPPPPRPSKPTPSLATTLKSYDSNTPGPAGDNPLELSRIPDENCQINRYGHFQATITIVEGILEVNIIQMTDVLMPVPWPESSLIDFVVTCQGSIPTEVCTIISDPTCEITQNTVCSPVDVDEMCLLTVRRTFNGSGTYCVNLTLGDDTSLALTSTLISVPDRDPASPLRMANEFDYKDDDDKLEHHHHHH
Test: antigen ELISA, vs hGPN18-2_H2L3
readout type: Relative binding activity
Give the figure by itself; no unit, no explanation.

binder	readout type	reported value
hGPN18-2_H2L3 VH M34A (antibody, V domains shown) VH: QVQLVQSGPGLVQPTQTLTLTCSFSGFSLSTSVAGVGWIRQPSGKGLEWLADIWWDDDKDYNPSLKSRLTISKDTSKNQVVLTMTNMDTVDTATYYCARTYYSNYEYYGMDYWGQGTLVTVSS VL: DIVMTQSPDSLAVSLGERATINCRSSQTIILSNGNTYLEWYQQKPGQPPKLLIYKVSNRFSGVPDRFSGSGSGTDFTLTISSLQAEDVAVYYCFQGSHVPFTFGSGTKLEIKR	Relative binding activity	0.91

Summary for this binder, hGPN18-2_H2L3 VH S32A (antibody, V domains shown) VH: QVQLVQSGPGLVQPTQTLTLTCSFSGFSLSTAVMGVGWIRQPSGKGLEWLADIWWDDDKDYNPSLKSRLTISKDTSKNQVVLTMTNMDTVDTATYYCARTYYSNYEYYGMDYWGQGTLVTVSS VL: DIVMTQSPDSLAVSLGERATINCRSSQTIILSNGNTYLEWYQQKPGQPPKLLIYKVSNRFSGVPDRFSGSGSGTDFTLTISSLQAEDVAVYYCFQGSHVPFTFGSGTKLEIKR : Relative binding activity is 0.78

Summary for this binder, hGPN18-2_H2L3 VH T31A (antibody, V domains shown) VH: QVQLVQSGPGLVQPTQTLTLTCSFSGFSLSASVMGVGWIRQPSGKGLEWLADIWWDDDKDYNPSLKSRLTISKDTSKNQVVLTMTNMDTVDTATYYCARTYYSNYEYYGMDYWGQGTLVTVSS VL: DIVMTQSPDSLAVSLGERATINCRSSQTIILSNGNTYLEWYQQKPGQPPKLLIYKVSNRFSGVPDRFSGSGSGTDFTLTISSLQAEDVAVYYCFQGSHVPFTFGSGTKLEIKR : Relative binding activity is 0.97

Summary for this binder, hGPN18-2_H2L3 VH F27A (antibody, V domains shown) VH: QVQLVQSGPGLVQPTQTLTLTCSFSGASLSTSVMGVGWIRQPSGKGLEWLADIWWDDDKDYNPSLKSRLTISKDTSKNQVVLTMTNMDTVDTATYYCARTYYSNYEYYGMDYWGQGTLVTVSS VL: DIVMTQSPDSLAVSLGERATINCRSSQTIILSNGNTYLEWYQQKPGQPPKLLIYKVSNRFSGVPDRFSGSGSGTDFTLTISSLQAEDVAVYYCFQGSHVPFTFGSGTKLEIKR : Relative binding activity is 0.69

Summary for this binder, hGPN18-2_H2L3 VH G35A (antibody, V domains shown) VH: QVQLVQSGPGLVQPTQTLTLTCSFSGFSLSTSVMAVGWIRQPSGKGLEWLADIWWDDDKDYNPSLKSRLTISKDTSKNQVVLTMTNMDTVDTATYYCARTYYSNYEYYGMDYWGQGTLVTVSS VL: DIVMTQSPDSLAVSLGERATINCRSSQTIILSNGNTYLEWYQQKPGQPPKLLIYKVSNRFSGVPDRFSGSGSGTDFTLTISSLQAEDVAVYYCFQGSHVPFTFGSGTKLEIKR : Relative binding activity is 0.68

Summary for this binder, hGPN18-2_H2L3 VH S28A (antibody, V domains shown) VH: QVQLVQSGPGLVQPTQTLTLTCSFSGFALSTSVMGVGWIRQPSGKGLEWLADIWWDDDKDYNPSLKSRLTISKDTSKNQVVLTMTNMDTVDTATYYCARTYYSNYEYYGMDYWGQGTLVTVSS VL: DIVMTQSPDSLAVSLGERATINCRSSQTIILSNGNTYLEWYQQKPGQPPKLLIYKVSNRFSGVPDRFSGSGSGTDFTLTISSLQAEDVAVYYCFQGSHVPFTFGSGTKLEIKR : Relative binding activity is 0.88

Summary for this binder, hGPN18-2_H2L3 VH W55A (antibody, V domains shown) VH: QVQLVQSGPGLVQPTQTLTLTCSFSGFSLSTSVMGVGWIRQPSGKGLEWLADIWADDDKDYNPSLKSRLTISKDTSKNQVVLTMTNMDTVDTATYYCARTYYSNYEYYGMDYWGQGTLVTVSS VL: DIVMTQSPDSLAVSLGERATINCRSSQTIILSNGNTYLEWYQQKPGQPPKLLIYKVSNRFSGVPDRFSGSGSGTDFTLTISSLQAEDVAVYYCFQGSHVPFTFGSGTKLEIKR : Relative binding activity is 0.66

Summary for this binder, hGPN18-2_H2L3 VH V36A (antibody, V domains shown) VH: QVQLVQSGPGLVQPTQTLTLTCSFSGFSLSTSVMGAGWIRQPSGKGLEWLADIWWDDDKDYNPSLKSRLTISKDTSKNQVVLTMTNMDTVDTATYYCARTYYSNYEYYGMDYWGQGTLVTVSS VL: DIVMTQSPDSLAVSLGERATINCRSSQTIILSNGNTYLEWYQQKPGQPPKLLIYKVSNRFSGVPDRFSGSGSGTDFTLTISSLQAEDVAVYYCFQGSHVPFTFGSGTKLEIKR : Relative binding activity is 0.92

Summary for this binder, hGPN18-2_H2L3 VH I53A (antibody, V domains shown) VH: QVQLVQSGPGLVQPTQTLTLTCSFSGFSLSTSVMGVGWIRQPSGKGLEWLADAWWDDDKDYNPSLKSRLTISKDTSKNQVVLTMTNMDTVDTATYYCARTYYSNYEYYGMDYWGQGTLVTVSS VL: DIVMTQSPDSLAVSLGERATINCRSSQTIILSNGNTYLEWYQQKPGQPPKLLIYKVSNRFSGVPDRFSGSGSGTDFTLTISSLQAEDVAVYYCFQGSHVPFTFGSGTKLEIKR : Relative binding activity is 0.6

Summary for this binder, hGPN18-2_H2L3 VH V33A (antibody, V domains shown) VH: QVQLVQSGPGLVQPTQTLTLTCSFSGFSLSTSAMGVGWIRQPSGKGLEWLADIWWDDDKDYNPSLKSRLTISKDTSKNQVVLTMTNMDTVDTATYYCARTYYSNYEYYGMDYWGQGTLVTVSS VL: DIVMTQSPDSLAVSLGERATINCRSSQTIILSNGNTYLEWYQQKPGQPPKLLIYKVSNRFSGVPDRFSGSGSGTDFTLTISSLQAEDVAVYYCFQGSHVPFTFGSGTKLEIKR : Relative binding activity is 0.55
